run description: 14C assay with IPTG-induced recombinant E. coli cells (14CO2 capture from [14C]-carboxyl-labeled dicamba)
condition info: IPTG-induced recombinant E. coli cells; [14C]-carboxyl-labeled dicamba; 14CO2 capture

{"columns": ["molecule", "Dicamba Decarboxylase Activity"],
 "data": [
  ["32 (protein, Streptomyces violaceusniger) MARIIAIEEHFLDLDIARASRPEAERLSPAFAAAYGAGQGYNYSPAPEVLLDLEEGRVADMDAHGISMQVLSSLSTQQLPADVAVELVRKVNDRAAAAVAARPDRFAAFAALPTTVPEAAADELDRAVGELGFVGSMINGRTGDAFLDAPRFDAVLRRSAELRVPVYLHPGVPPVETSRSNYEGGLDPIVTARLQTSAWGWHVETGIHFLHLVLAGVFDRYPDLQVILGHWGEMVPFFLERIEEALPQQITHLDRPVGAYFRENAHITPSGMFSQAQLQFCVETVGIERIMFSVDYPFLGNDGAEAFLRQANLPPLATEKIAHLNAERLLALPS", "High"],
  ["101 (protein, listed as Aquifex aeolicus) MAQKIALCITGASGVIYGIKLLQVLEELDFSVDLVISRNAKVVLKEEHSLTFEEVLKGLKNVRIHEENDFTSPLASGSRLVHYRGVYVVPCSTNTLSCIANGINKNLIHRVGEVALKERVPLVLLVREAPYNEIHLENMLKITRMGGVVVPASPAFYHKPQSIDDMINFVVGKLLDVLRIEHNLYKRWRG", "No"]
]}

The reported numbers originate from patent US20140287419A1.
